Where do these numbers come from? They come from patent US20240352105A1.

Target: T1, recombinant His-tagged Der p1 (dust mite, UniProt P08176 99-320, limits assumed)
T1 construct: Recombinant His-tagged protein made by the applicant; also called Der p1-His; Der pl; not shown: His tag
T1 sequence (looked up): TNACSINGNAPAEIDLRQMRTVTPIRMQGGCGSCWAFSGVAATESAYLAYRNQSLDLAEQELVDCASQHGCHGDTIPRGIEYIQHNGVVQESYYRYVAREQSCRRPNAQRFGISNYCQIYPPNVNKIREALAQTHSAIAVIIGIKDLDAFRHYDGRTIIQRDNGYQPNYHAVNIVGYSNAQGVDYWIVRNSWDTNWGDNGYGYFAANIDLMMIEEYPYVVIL
Assay: ELISA, Der p1 on plate, biotinylated peptide at 10, duplicate 2
No end group written: not given here.
Is OD450 at least 0.4 OD450? Then True. If not, False.

Take a look at these entries with their results.
VVAFGIS (also: biotinylated, site not given here, 7-amino acid peptide from a phage display library) [SDAB22110-2-G1] ... False
YPTWAYR (also: biotinylated, site not given here, 7-amino acid peptide from a phage display library) [SDAB22110-2-C3] ... False
AVVSFYP (also: biotinylated, site not given here, 7-amino acid peptide from a phage display library) [SDAB22110-2-F1] ... True

Hi, just wondering whether GIHMALM (also: biotinylated, site not given here, 7-amino acid peptide from a phage display library) [SDAB22110-2-B2] shows OD450 of 0.4 OD450 or higher.
False

Queued: HSGPECG (also: biotinylated, site not given here, 7-amino acid peptide from a phage display library) [SDAB22110-2-D3]
True

Queued: LTGYGMS (also: biotinylated, site not given here, 7-amino acid peptide from a phage display library) [SDAB22110-2-D9]
False
